Assay info: Plasma concentration in Wistar rat at 10 mg/kg, sc after 2 hrs
Format: ADME, organism-based
Property label: concentration at 2 h

Compound	Property label	Reported result
c1ccc2sc(NC3=NCC4(CN5CCC4CC5)N3)nc2c1 (stereo unspecified)	concentration at 2 h	460 to 463 nM

====

Assay info: Drug uptake in Wistar rat brain at 3 mg/kg, sc after 2 hrs
Assay type: ADME, organism-based
Condition: read-out: Drug uptake
Property label: concentration at 2 h (nM)

Compound	Property label	Reported result
c1ccc2sc(NC3=NCC4(CN5CCC4CC5)N3)nc2c1 (stereo unspecified)	concentration at 2 h	524

====

Test system: Neuronal acetylcholine receptor subunit alpha-7 (Rattus norvegicus) (UniProt Q05941)
Sequence (Q05941 whole entry): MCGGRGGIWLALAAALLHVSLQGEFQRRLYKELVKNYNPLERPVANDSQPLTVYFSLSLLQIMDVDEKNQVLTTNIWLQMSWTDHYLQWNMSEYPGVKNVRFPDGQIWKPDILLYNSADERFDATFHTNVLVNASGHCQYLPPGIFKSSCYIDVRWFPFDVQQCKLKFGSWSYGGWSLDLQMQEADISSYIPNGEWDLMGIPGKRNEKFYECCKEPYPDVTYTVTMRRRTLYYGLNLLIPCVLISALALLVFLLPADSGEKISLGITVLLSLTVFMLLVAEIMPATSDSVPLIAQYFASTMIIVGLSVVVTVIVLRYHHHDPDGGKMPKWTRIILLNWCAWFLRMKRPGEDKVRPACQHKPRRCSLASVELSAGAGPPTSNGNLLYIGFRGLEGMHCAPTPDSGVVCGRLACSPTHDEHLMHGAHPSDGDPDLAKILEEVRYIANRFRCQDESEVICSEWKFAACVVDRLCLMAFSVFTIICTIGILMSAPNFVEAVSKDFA
Assay info: Agonist activity at rat alpha7 nAChR expressed in HEK293 cells co-expressing human RIC-3 assessed as maximum peak current at 10 uM at holding potential of -90 mV by whole-cell voltage clamp electrophysiology method relative to acetylcholine
Type: cell-based
Property label: Emax (%)

Compound	Property label	Units of measure	Reported result
Clc1cnc(NC2=NCC3(CN4CCC3CC4)N2)nc1 (racemic)	Emax	%	11
Cc1ccc2nc(NC3=NCC4(CN5CCC4CC5)N3)oc2c1 (racemic)	Emax	%	16
c1ccc2sc(NC3=NCC4(CN5CCC4CC5)N3)nc2c1 (stereo not given)	Emax	%	29
Clc1ccc2nc(NC3=NCC4(CN5CCC4CC5)N3)sc2c1 (racemic)	Emax	%	5
CN1C(Nc2nc3ccccc3s2)=NCC12CN1CCC2CC1 (stereo not given)	Emax	%	25
